tested on: RL95-2 (Endometrial Carcinoma); test: combination Emax (second highest fraction inhibited in the dose matrix, 72 h); higher = more inhibition; extreme values may be limits of the assay
Classify as follows. Reported combination Emax greater than or equal to 0.7: Fulfilled. Reported combination Emax below: Not fulfilled.

{"Compound": "CN(C)CCCOc1ccc(-c2ccc3ncc4c(c3c2)n(C2CCOCC2)c(=O)n4C)cn1 [AZD0156] + C[C@@H]1COCCN1C2=NC(=NC(=C2)C3(CC3)[S@](=N)(=O)C)C4=C5C=CNC5=NC=C4 [AZD6738] (first compound max 1 µM, 7x7, partner max 10 µM)", "Target Entity": "RL95-2 (Endometrial Carcinoma)", "Assigned Category": "Not fulfilled"}
{"Compound": "CC1(C)CCC(CN2CCN(c3ccc(C(=O)NS(=O)(=O)c4ccc(NCC5CCOCC5)c([N+](=O)[O-])c4)c(Oc4cnc5[nH]ccc5c4)c3)CC2)=C(c2ccc(Cl)cc2)C1 [Venetoclax] + C=CCn1c(=O)c2cnc(Nc3ccc(N4CCN(C)CC4)cc3)nc2n1-c1cccc(C(C)(C)O)n1 [AZD1775] (first compound max 1 µM, partner max 1 µM)", "Target Entity": "RL95-2 (Endometrial Carcinoma)", "Assigned Category": "Not fulfilled"}
{"Compound": "NC1(C(=O)N[C@@H](CCO)c2ccc(Cl)cc2)CCN(c2ncnc3[nH]ccc23)CC1 [Capivasertib] + CC(=O)c1c(C)c2cnc(Nc3ccc(N4CCNCC4)cn3)nc2n(C2CCCC2)c1=O [Palbociclib] (first compound max 10 µM, 7x7, partner max 10 µM)", "Target Entity": "RL95-2 (Endometrial Carcinoma)", "Assigned Category": "Fulfilled"}
{"Compound": "CC(=O)c1c(C)c2cnc(Nc3ccc(N4CCNCC4)cn3)nc2n(C2CCCC2)c1=O [Palbociclib] + CC1(C)CCC(CN2CCN(c3ccc(C(=O)NS(=O)(=O)c4ccc(NCC5CCOCC5)c([N+](=O)[O-])c4)c(Oc4cnc5[nH]ccc5c4)c3)CC2)=C(c2ccc(Cl)cc2)C1 [Venetoclax] (first compound max 10 µM, 7x7, partner max 1 µM)", "Target Entity": "RL95-2 (Endometrial Carcinoma)", "Assigned Category": "Not fulfilled"}
{"Compound": "C=CCn1c(=O)c2cnc(Nc3ccc(N4CCN(C)CC4)cc3)nc2n1-c1cccc(C(C)(C)O)n1 [AZD1775] + C1CN(CCC1(C(=O)N[C@@H](CCO)C2=CC=C(C=C2)Cl)N)C3=NC=NC4=C3C=CN4 [Capivasertib] (first compound max 3 µM, partner max 3 µM)", "Target Entity": "RL95-2 (Endometrial Carcinoma)", "Assigned Category": "Fulfilled"}
{"Compound": "COc1cccc2c1C(=O)c1c(O)c3c(c(O)c1C2=O)C[C@@](O)(C(=O)CO)C[C@@H]3O[C@H]1C[C@H](N)[C@H](O)[C@H](C)O1 [Doxorubicin] + Cc1cc2ncnn2cc1Nc1ncc2c(n1)n(C1CCOCC1)c(=O)n2C [AZD7648] (first compound max 1 µM, 7x7, partner max 10 µM)", "Target Entity": "RL95-2 (Endometrial Carcinoma)", "Assigned Category": "Not fulfilled"}
{"Compound": "CN(CCO)CC[C@H](CSc1ccccc1)Nc1ccc(S(=O)(=O)NC(=O)c2ccc(N3CCC([C@@H](O)c4ccccc4-c4ccc(Cl)cc4)CC3)cc2)cc1S(=O)(=O)C(F)(F)F [AZD4320] + C=CCn1c(=O)c2cnc(Nc3ccc(N4CCN(C)CC4)cc3)nc2n1-c1cccc(C(C)(C)O)n1 [AZD1775] (first compound max 1 µM, partner max 1 µM)", "Target Entity": "RL95-2 (Endometrial Carcinoma)", "Assigned Category": "Not fulfilled"}
{"Compound": "Cc1cc2ncnn2cc1Nc1ncc2c(n1)n(C1CCOCC1)c(=O)n2C [AZD7648] + C=CCn1c(=O)c2cnc(Nc3ccc(N4CCN(C)CC4)cc3)nc2n1-c1cccc(C(C)(C)O)n1 [AZD1775] (first compound max 10 µM, partner max 1 µM)", "Target Entity": "RL95-2 (Endometrial Carcinoma)", "Assigned Category": "Not fulfilled"}
{"Compound": "Cn1cnc2c(F)c(Nc3ccc(Br)cc3Cl)c(C(=O)NOCCO)cc21 [Selumetinib] + C[C@@H]1COCCN1C2=NC(=NC(=C2)C3(CC3)[S@](=N)(=O)C)C4=C5C=CNC5=NC=C4 [AZD6738] (first compound max 10 µM, 7x7, partner max 10 µM)", "Target Entity": "RL95-2 (Endometrial Carcinoma)", "Assigned Category": "Fulfilled"}

---

test system: PANC-02-03 (Pancreatic Carcinoma); assay: Bliss excess, mean over the matrix (fraction); higher = more synergy

{"Compound": "CC1(C)CCC(CN2CCN(c3ccc(C(=O)NS(=O)(=O)c4ccc(NCC5CCOCC5)c([N+](=O)[O-])c4)c(Oc4cnc5[nH]ccc5c4)c3)CC2)=C(c2ccc(Cl)cc2)C1 [Venetoclax] + Cn1cnc2c(F)c(Nc3ccc(Br)cc3Cl)c(C(=O)NOCCO)cc21 [Selumetinib] (first compound max 1 µM, 7x7, partner max 3 µM)", "Target Entity": "PANC-02-03 (Pancreatic Carcinoma)", "Bliss excess": -0.0386}
{"Compound": "CN(C)CCCOc1ccc(-c2ccc3ncc4c(c3c2)n(C2CCOCC2)c(=O)n4C)cn1 [AZD0156] + C=CCn1c(=O)c2cnc(Nc3ccc(N4CCN(C)CC4)cc3)nc2n1-c1cccc(C(C)(C)O)n1 [AZD1775] (first compound max 1 µM, partner max 1 µM)", "Target Entity": "PANC-02-03 (Pancreatic Carcinoma)", "Bliss excess": -0.026}
{"Compound": "NC1(C(=O)N[C@@H](CCO)c2ccc(Cl)cc2)CCN(c2ncnc3[nH]ccc23)CC1 [Capivasertib] + CCN(CCO)CCCOc1ccc2c(Nc3cc(CC(=O)Nc4cccc(F)c4)[nH]n3)ncnc2c1 [AZD2811] (first compound max 10 µM, 7x7, partner max 1 µM)", "Target Entity": "PANC-02-03 (Pancreatic Carcinoma)", "Bliss excess": -0.0261}

---

tested on: SW684 (Other Solid Carcinomas); experiment: combination Emax (second highest fraction inhibited in the dose matrix, 72 h); higher = more inhibition; extreme values may be limits of the assay
Reported Metric: combination Emax

{"Compound": "NC1(C(=O)N[C@@H](CCO)c2ccc(Cl)cc2)CCN(c2ncnc3[nH]ccc23)CC1 [Capivasertib] + C[C@@H]1COCCN1C2=NC(=NC(=C2)C3(CC3)[S@](=N)(=O)C)C4=C5C=CNC5=NC=C4 [AZD6738] (first compound max 10 µM, 7x7, partner max 10 µM)", "Reported Metric": "combination Emax", "Result Number": 0.587}

---

tested on: BALL-1 (B-Lymphoblastic Leukemia); experiment: Bliss excess, mean over the matrix (fraction); higher = more synergy
Listed next: entries and their corresponding Bliss excess.

{"Molecule": "CCN(CCO)CCCOc1ccc2c(Nc3cc(CC(=O)Nc4cccc(F)c4)[nH]n3)ncnc2c1 [AZD2811] + C=CCn1c(=O)c2cnc(Nc3ccc(N4CCN(C)CC4)cc3)nc2n1-c1cccc(C(C)(C)O)n1 [AZD1775] (first compound max 1 µM, partner max 1 µM)", "Bliss excess": 0.0612}
{"Molecule": "CN(CCO)CC[C@H](CSc1ccccc1)Nc1ccc(S(=O)(=O)NC(=O)c2ccc(N3CCC([C@@H](O)c4ccccc4-c4ccc(Cl)cc4)CC3)cc2)cc1S(=O)(=O)C(F)(F)F [AZD4320] + C[C@@H]1COCCN1C2=NC(=NC(=C2)C3(CC3)[S@](=N)(=O)C)C4=C5C=CNC5=NC=C4 [AZD6738] (first compound max 1 µM, 7x7, partner max 10 µM)", "Bliss excess": 0.0096}
{"Molecule": "CN(CCO)CC[C@H](CSc1ccccc1)Nc1ccc(S(=O)(=O)NC(=O)c2ccc(N3CCC([C@@H](O)c4ccccc4-c4ccc(Cl)cc4)CC3)cc2)cc1S(=O)(=O)C(F)(F)F [AZD4320] + CCN(CCO)CCCOc1ccc2c(Nc3cc(CC(=O)Nc4cccc(F)c4)[nH]n3)ncnc2c1 [AZD2811] (first compound max 1 µM, 7x7, partner max 1 µM)", "Bliss excess": 0.14}

---

# Lookup of reported combination Emax keyed by entry
tested on: NCI-H1623 (Lung Adenocarcinoma); experiment: combination Emax (second highest fraction inhibited in the dose matrix, 72 h); higher = more inhibition; extreme values may be limits of the assay

{"Compound": "Cc1nc(Nc2ncc(C(=O)Nc3c(C)cccc3Cl)s2)cc(N2CCN(CCO)CC2)n1 [Dasatinib] + CC(=O)Nc1cccc(-n2c(=O)n(C3CC3)c(=O)c3c(Nc4ccc(I)cc4F)n(C)c(=O)c(C)c32)c1 [Trametinib] (first compound max 2 µM, 7x7, partner max 1 µM)", "Target Entity": "NCI-H1623 (Lung Adenocarcinoma)", "combination Emax": 0.576}
{"Compound": "Cc1cc2ncnn2cc1Nc1ncc2c(n1)n(C1CCOCC1)c(=O)n2C [AZD7648] + C=CCn1c(=O)c2cnc(Nc3ccc(N4CCN(C)CC4)cc3)nc2n1-c1cccc(C(C)(C)O)n1 [AZD1775] (first compound max 10 µM, partner max 1 µM)", "Target Entity": "NCI-H1623 (Lung Adenocarcinoma)", "combination Emax": 0.505}
{"Compound": "Cc1c2c(nn1C)CSCc1cc(n(C)n1)CSc1cc(c3ccccc3c1)OCCCc1c(C(=O)O)n(C)c3c-2c(Cl)ccc13 [AZD5991] + CCN(CCO)CCCOc1ccc2c(Nc3cc(CC(=O)Nc4cccc(F)c4)[nH]n3)ncnc2c1 [AZD2811] (first compound max 1 µM, 7x7, partner max 1 µM)", "Target Entity": "NCI-H1623 (Lung Adenocarcinoma)", "combination Emax": 0.899}
{"Compound": "CN(CCO)CC[C@H](CSc1ccccc1)Nc1ccc(S(=O)(=O)NC(=O)c2ccc(N3CCC([C@@H](O)c4ccccc4-c4ccc(Cl)cc4)CC3)cc2)cc1S(=O)(=O)C(F)(F)F [AZD4320] + Cn1cnc2c(F)c(Nc3ccc(Br)cc3Cl)c(C(=O)NOCCO)cc21 [Selumetinib] (first compound max 1 µM, 7x7, partner max 3 µM)", "Target Entity": "NCI-H1623 (Lung Adenocarcinoma)", "combination Emax": 0.859}
{"Compound": "CC1(C)CCC(CN2CCN(c3ccc(C(=O)NS(=O)(=O)c4ccc(NCC5CCOCC5)c([N+](=O)[O-])c4)c(Oc4cnc5[nH]ccc5c4)c3)CC2)=C(c2ccc(Cl)cc2)C1 [Venetoclax] + CN(C)CCCOc1ccc(-c2ccc3ncc4c(c3c2)n(C2CCOCC2)c(=O)n4C)cn1 [AZD0156] (first compound max 1 µM, 7x7, partner max 1 µM)", "Target Entity": "NCI-H1623 (Lung Adenocarcinoma)", "combination Emax": 0.262}
{"Compound": "COc1nnc2ccc(N3CCC(c4ccc(OCCN5CCN(C)C(=O)[C@H]5C)cc4)CC3)nn12 [AZD5153] + Cn1cnc2c(F)c(Nc3ccc(Br)cc3Cl)c(C(=O)NOCCO)cc21 [Selumetinib] (first compound max 1 µM, 7x7, partner max 10 µM)", "Target Entity": "NCI-H1623 (Lung Adenocarcinoma)", "combination Emax": 0.706}
{"Compound": "C[C@@H](c1ccc2nccn2c1)n1nnc2ncc(-c3cnn(C)c3)nc21 [Savolitinib] + Cc1c2c(nn1C)CSCc1cc(n(C)n1)CSc1cc(c3ccccc3c1)OCCCc1c(C(=O)O)n(C)c3c-2c(Cl)ccc13 [AZD5991] (first compound max 1 µM, 7x7, partner max 1 µM)", "Target Entity": "NCI-H1623 (Lung Adenocarcinoma)", "combination Emax": 0.802}
